target: mAChR hM4 (Homo sapiens, UniProt P08173); construct: expressed in transfected cells; host or cells: CHO-K1 (Chinese hamster ovary) cells; test: mAChR M4 cell-based functional assay (calcium flux, potentiation of EC20 acetylcholine response); settings: % ACh maximum at 30 μM; mAChR hM4 cell-line
Sequence (P08173 whole entry): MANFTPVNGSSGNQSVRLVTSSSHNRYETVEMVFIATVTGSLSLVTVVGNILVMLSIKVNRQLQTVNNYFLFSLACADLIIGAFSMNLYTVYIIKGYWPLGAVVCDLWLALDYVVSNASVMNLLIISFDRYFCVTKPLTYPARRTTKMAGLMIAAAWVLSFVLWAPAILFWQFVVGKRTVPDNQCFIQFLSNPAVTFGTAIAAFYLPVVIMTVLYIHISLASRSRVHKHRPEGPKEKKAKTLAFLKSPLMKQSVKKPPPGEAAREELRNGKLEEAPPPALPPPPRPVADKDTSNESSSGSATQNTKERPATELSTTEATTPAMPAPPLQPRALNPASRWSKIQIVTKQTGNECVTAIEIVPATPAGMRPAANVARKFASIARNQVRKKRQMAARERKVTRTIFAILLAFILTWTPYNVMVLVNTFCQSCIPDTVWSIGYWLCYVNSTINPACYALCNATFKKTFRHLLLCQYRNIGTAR
RESULT TYPE: Emax at 30 µM (%)
Please state the figure in %; there is no need to write the unit.

Below, 3 molecules whose answers are already recorded.
MOLECULE | Emax at 30 µM / %
Cc1nc2sc(C(=O)NC3CCOC3)c(C3CC3)c2c(C)c1Cl (centres unmarked) | 60
Cc1cc(C)c2c(C)c(C(=O)NCc3ccc(S(C)(=O)=O)cc3)sc2n1 | 62
Cc1cc(C)c2c(C)c(C(=O)NC3CCOCC3)sc2n1 | 44

Answer with the recorded Emax at 30 µM of Cc1nc2sc(C(=O)NC3COC3)c(C)c2c(C)c1Cl only. 76

Answer with the recorded Emax at 30 µM of Cc1cc(C)c2c(Br)c(C(=O)NCc3cccnc3)sc2n1 only. 33

Answer with the recorded Emax at 30 µM of Cc1cc(C)c2c(C)c(C(=O)N[C@@H]3CCOC3)sc2n1 only. 60

Answer with the recorded Emax at 30 µM of Cc1nc2sc(C(=O)NC3CCC3)c(Cl)c2c(C)c1Cl only. 34

Answer with the recorded Emax at 30 µM of Cc1nc2sc(C(=O)NC3COC3)c(Br)c2c(C)c1Cl only. 84

Answer with the recorded Emax at 30 µM of Cc1cnc2sc(C(=O)NC3COC3)cc2c1C only. 60

###

target: mAChR hM4 (Homo sapiens); construct: expressed in transfected cells; host or cells: CHO-K1 (Chinese hamster ovary) cells; assay: mAChR M4 cell-based functional assay (calcium flux, potentiation of EC20 acetylcholine response); settings: % ACh maximum at 30 μM; mAChR hM4 cell-line
RESULT TYPE: Emax at 30 µM (%)
Please state the figure in %; there is no need to write the unit.

COMPOUND | Emax at 30 µM, %
Cc1nc2sc(C(=O)NC3(C)COC3)c(C3CC3)c2c(C)c1Cl | 38
COc1ccc(C2CC2NC(=O)c2cc3c(C)cc(C)nc3s2)cc1 (centres unmarked) | 30
Cc1cc(C)c2c(C)c(C(=O)NCc3ccc4c(c3)CCO4)sc2n1 | 38
CSc1ccc(CNC(=O)c2sc3nc(C)cc(C)c3c2C)cc1 | 49
Cc1cnc2sc(C(=O)NC3CN(c4cccnc4)C3)cc2c1C | 76
Cc1cc(C)c2c(Br)c(C(=O)NC3CCC3)sc2n1 | 41
Cc1cc(C)c2cc(C(=O)NC3COC3)sc2n1 | 46
Cc1cc(C)c2c(Br)c(C(=O)NC3COC3)sc2n1 | 68

Answer with the recorded Emax at 30 µM of Cc1nc2sc(C(=O)NC3CC3)c(C3CC3)c2c(C)c1Cl only. 50

Answer with the recorded Emax at 30 µM of Cc1cc(C)c2cc(C(=O)N3CC(c4ccccc4)C3)sc2n1 only. 34

###

molecular target: mAChR hM4 (Homo sapiens, UniProt P08173); construct: expressed in transfected cells; host or cells: CHO-K1 (Chinese hamster ovary) cells; assay: mAChR M4 cell-based functional assay (calcium flux, potentiation of EC20 acetylcholine response); details: % ACh maximum at 30 μM; mAChR hM4 cell-line
# Emax at 30 µM listing for each entry below
Please state the figure in %; there is no need to write the unit.

Below, 5 compounds whose answers are already recorded.
COMPOUND | MEASUREMENT UNITS | REPORTED VALUE
Cc1cc(C)c2cc(C(=O)NCc3ccc(-c4cccnc4F)cc3)sc2n1 | % | 34
Cc1nc2sc(C(=O)NC3CC3)c(Cl)c2c(C)c1Cl | % | 56
Cc1nc2sc(C(=O)NC3(C)COC3)c(Cl)c2c(C)c1Cl | % | 61
Cc1nc2sc(C(=O)NC3[C@H]4C[C@@H]3C4)c(Cl)c2c(C)c1Cl (stereo partly drawn) | % | 35
Cc1nc2sc(C(=O)NC3CCOC3)c(Br)c2c(C)c1Cl (stereo not drawn) | % | 54

Turning to the following compound.
Identify measured Emax at 30 µM obtained with mAChR hM4 (Homo sapiens, UniProt P08173) for Cc1cc(C)c2c(Br)c(C(=O)N3CCCC3)sc2n1 . 44
